- MEASURED_TARGET: T1, soluble recombinant human PD-1 receptor (human, UniProt Q15116 25-167, limits assumed)
- T1 construct: also called human PD-1 receptors
- T1 sequence (Q15116 25-167 limits assumed): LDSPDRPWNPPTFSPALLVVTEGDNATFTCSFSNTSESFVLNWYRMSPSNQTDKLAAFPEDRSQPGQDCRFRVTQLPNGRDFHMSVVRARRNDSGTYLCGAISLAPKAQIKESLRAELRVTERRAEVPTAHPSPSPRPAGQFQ
- TEST_PROTOCOL: BIACORE T-200 SPR, PD-1 immobilised on CM5, steady state
OUTCOME_MEASURE: Ka (M⁻¹)

BINDER	OUTCOME_MEASURE	UNITS_OF_MEASURE	MEASUREMENT
QTRTVPMPKIHHPPWQNVVP (Found by phage display) [peptide QP20]	Ka	M⁻¹	93600
HHHQVYQVRSHWTGMHSGHD (Found by phage display) [peptide HD20]	Ka	M⁻¹	318000
WNLPASFHNHHIRPHEHEWIQ (also called WQ-21) [peptide WQ20]	Ka	M⁻¹	3280
SSYHHFKMPELHFGKNTFHQ (Found by phage display) [peptide SQ20]	Ka	M⁻¹	194000
